Provenance of the data: the supplement of paper PMC10981050

- Tested on: OCI-AML2;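 also: after 48 h exposure read by CellTiter-Glo luminescence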
- METHOD SUMMARY: cell viability relative to vehicle control; higher = less cytotoxic
- PROTOCOL CONDITIONS: 10 µM; SRSF2 genotype: wt/wt
Counter-ions that a name gives are not always drawn.
cell viability listing for selected molecules.
Write down the numeric answer in % and omit the unit.

C=C(C)[C@@H]1CC[C@]2(C(=O)O)CC[C@]3(C)[C@H](CC[C@@H]4[C@@]5(C)CC[C@H](O[C@@H]6OC[C@H](O)[C@H](O)[C@H]6O[C@@H]6O[C@@H](C)[C@H](O)[C@@H](O)[C@H]6O)[C@@](C)(CO)[C@@H]5CC[C@]43C)[C@@H]12 [Pulchinenoside A]
105
CN1CCN(c2ccc(C(=O)Nc3n[nH]c4ccc(Cc5cc(F)cc(F)c5)cc34)c(NC3CCOCC3)c2)CC1 [Entrectinib (RXDX-101)]
0.35
CN1CCC[C@@H]1CCO[C@](C)(c1ccccc1)c1ccc(Cl)cc1 [Clemastine Fumarate]
78.8
CNC(=O)CN1CCC(Oc2cc3c(Nc4cccc(Cl)c4F)ncnc3cc2OC)CC1
79.5

Q. Suppose we examine the molecule Nc1nccc(Oc2ccc3c(C(=O)Nc4cccc(C(F)(F)F)c4)cccc3c2)n1 ; what cell viability value has been reported?
A. 106

Q. Now give it for Cc1cc(C)c(CNC(=O)c2cc(-c3ccc(CN4CCOCC4)cc3)cc3c2cnn3C2CCCC2)c(=O)[nH]1 too.
A. 106

Q. Another: COc1cc(C=O)ccc1OC(C)=O [Acetylvanillin]
A. 104

Q. Next: CN1CCN(c2ccc(OC(F)(F)F)c(Nc3ncc4c(n3)-c3c(c(C(N)=O)nn3CCO)CC4)c2)CC1
A. 18.8

Q. One more molecule: COc1ccc(C2=N[C@@H](c3ccc(Cl)cc3)[C@@H](c3ccc(Cl)cc3)N2C(=O)N2CCNC(=O)C2)c(OC(C)C)c1 [Nutlin-3]
A. 32.1

Q. Subsequent entry: Cc1c(Cl)cccc1Nc1ccccc1C(=O)O [Tolfenamic acid]
A. 106
